Sourced from patent US8193189B2

Listed here: compounds with reported IC50 for GST-JAK3(811-1124) (Homo sapiens, UniProt P52333).
endpointName: IC50 (nM)

smilesStr: Cc1cc(-c2cccc3ncc(-c4ccc(C(=O)N5CCOCC5)c(C)c4)nc23)ccc1CN1CCOCC1
IC50 [nM]: 3800

P: Cc1cc(-c2cccc3ncc(-c4cnn(CCCN5CCOCC5)c4)nc23)ccc1C(=O)N1CCOCC1
Q: Cc1cc(-c2cnc3cccc(-c4cc(F)c(CN5CCS(=O)(=O)CC5)c(F)c4)c3n2)ccc1C(=O)N1CCOCC1
Task: Sorting by IC50 in descending order, would P or Q appear first? Your answer should be the label of the entry you select.
Output: P

----------
# assayTarget: GST-JAK2(808-1132) (Homo sapiens)
# Construct: GST-JAK2(808-1132); purchased Invitrogen (Carlsbad, USA) #4288
# experimentalProtocol: EPK JAK-family kinases profiling assay (Caliper mobility shift), JAK2
# Assay type: biochemical
# testContext: ATP 20 μM, 1.8 nM kinase
endpointName: IC50 (nM)

compound: Cc1cc(CN2CCOCC2)ccc1-c1cccc2ncc(-c3cnn(C4CCNCC4)c3)nc12 [Example 147]
endpointName: IC50
quantityUnit: nM
observed: 97
//
compound: CCOc1ccc(-c2cnc3cccc(-c4ccc(CC(=O)N5CCOCC5)c(F)c4)c3n2)cc1OCC [Example 30]
endpointName: IC50
quantityUnit: nM
observed: 11

P: CCN1CCN(Cc2ccc(-c3cnc4cccc(-c5cc(F)c(CN6CCOCC6)c(F)c5)c4n3)cc2C)CC1 [Example 92]
Q: COc1cc(-c2cnc3cccc(-c4ccc(CC(=O)N5CCOCC5)cc4)c3n2)ccc1OCCN1CCOCC1 [Example 34]
Task: API: POST /compare with P and Q ; response names the item with higher IC50. Answer with the label corresponding to your selection.
Output: P
(P: 43 nM, Q: 4.1 nM)

----------
# assayTarget: GST-JAK1(866-1154) (Homo sapiens)
# Sequence (P23458 866-1154): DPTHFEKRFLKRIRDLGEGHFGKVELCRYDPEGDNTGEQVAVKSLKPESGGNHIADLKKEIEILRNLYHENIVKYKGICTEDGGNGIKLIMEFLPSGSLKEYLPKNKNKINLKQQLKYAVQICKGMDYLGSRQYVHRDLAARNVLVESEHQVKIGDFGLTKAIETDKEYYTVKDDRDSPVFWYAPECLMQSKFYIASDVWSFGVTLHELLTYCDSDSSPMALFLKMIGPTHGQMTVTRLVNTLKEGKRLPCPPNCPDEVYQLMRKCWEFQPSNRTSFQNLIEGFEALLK
pIC50: −log10 of the molar value.
endpointName: pIC50

Recorded results for 4 compounds are shown here.
smilesStr: COc1cc(-c2cnc3cccc(-c4ccc(CC(=O)N5CCOCC5)cc4)c3n2)ccc1OCCN1CCOCC1
pIC50: 7.57
--
smilesStr: Cc1cc(CN2CCS(=O)(=O)CC2)ccc1-c1cccc2ncc(-c3cnn(C4CCNCC4)c3)nc12
pIC50: 6.19
--
smilesStr: COC(=O)N1CCC(n2cc(-c3cnc4cccc(-c5cc(F)c(CN6CCOCC6)c(F)c5)c4n3)cn2)CC1
pIC50: 6.82
--
smilesStr: Cc1cc(-c2cnc3cccc(-c4ccc(CN5CCS(=O)(=O)CC5)c(C)c4)c3n2)ccc1CN1CCOCC1
pIC50: 6.44

I: COc1cc(-c2cnc3cccc(-c4cc(F)c(CN5CCOCC5)c(F)c4)c3n2)ccc1N1CCN(C)CC1
II: CCN1CCN(C(=O)c2ccc(-c3cnc4cccc(-c5cc(F)c(CN6CCOCC6)c(F)c5)c4n3)cc2C)CC1
III: Fc1cc(-c2cccc3ncc(-c4cnn(C5CCNCC5)c4)nc23)ccc1CN1CCOCC1
Task: Rank order required: pIC50, descending. Would you mind listing the labels in the order requested?
Output: I, III, II
(I: 7.28, III: 6.60, II: 6.31)

----------
# assayTarget: GST-JAK2(808-1132) (Homo sapiens, UniProt O60674)
# Construct: GST-JAK2(808-1132); purchased Invitrogen (Carlsbad, USA) #4288
# Sequence (O60674 808-1132): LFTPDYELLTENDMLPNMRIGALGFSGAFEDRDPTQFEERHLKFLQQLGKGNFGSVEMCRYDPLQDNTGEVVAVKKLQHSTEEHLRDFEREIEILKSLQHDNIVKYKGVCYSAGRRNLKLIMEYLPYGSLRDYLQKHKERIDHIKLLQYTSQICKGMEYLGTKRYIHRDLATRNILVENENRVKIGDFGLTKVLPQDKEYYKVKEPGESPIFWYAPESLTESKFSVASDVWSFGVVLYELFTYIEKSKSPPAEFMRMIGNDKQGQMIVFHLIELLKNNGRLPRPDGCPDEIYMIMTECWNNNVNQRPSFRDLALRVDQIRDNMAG
# experimentalProtocol: EPK JAK-family kinases profiling assay (Caliper mobility shift), JAK2
# Format: biochemical
# testContext: ATP 20 μM, 1.8 nM kinase
endpointName: IC50 (nM)

smilesStr: CCN1CCN(C(=O)c2ccc(-c3cnc4cccc(-c5cc(F)c(CN6CCOCC6)c(F)c5)c4n3)cc2C)CC1
assayTarget: GST-JAK2(808-1132) (Homo sapiens, UniProt O60674)
IC50 / nM: 14

smilesStr: COc1cc(-c2cnc3cccc(-c4ccc(CC(=O)N5CCN(C)CC5)cc4)c3n2)cc(OC)c1OC
assayTarget: GST-JAK2(808-1132) (Homo sapiens, UniProt O60674)
IC50 / nM: 80

1: Cc1cc(-c2cnc3cccc(-c4cc(F)c(CN5CCOCC5)c(F)c4)c3n2)ccc1C(=O)N1CCCC1
2: COc1cc(-c2cnc3cccc(-c4ccc(C(=O)N5CCOCC5)c(F)c4)c3n2)ccc1OCCN1CCOCC1
Task: Which record would sort first by descending IC50, 1 or 2 ? To answer, give the label that identifies your chosen option.
Output: 2
